# Measurement target: Δ70-POT1aC;TPP1 (mouse? (POT1a part); RPA70 organism not …, UniProt Q8VEE4;Q5EE38 191-623+Q91WC1:149-640;1-416, internal_change|)
# Experiment: EMSA
pKd: −log10 of the molar value.

{"columns": ["Binder", "pKd"],
 "data": [
  ["TTAGGGTTAGGGTTAGGGTTAGGGTTAGGGTTAG (ssDNA) [Telo34]", "~9.30"]
]}
